- Tested on: Orpinomyces sp. strain PC-2 endoxylanase XynA-1 (purified native enzyme, 29 kDa)
- procedure.summary: Effect of reagents on purified endoxylanase activity (residual activity on oat spelt xylan)
- Format: biochemical
- assay.context: reagent 3 mM; preincubated 22° C. 10 min, residual activity at 40° C., 50 mM piperazine-HCl pH 5.5; control without reagent = 100%
measurement.kind: Relative activity (%)
Write it as a number; the unit % goes unstated.

-- ask Consider the compound shown here: O=C1CCC(=O)N1Br [N-Bromosuccinimide] What is its recorded Relative activity (%)?
-- reply 0

-- ask Next compound up: OCCS [β-Mercaptoethanol]
-- reply 95.4

-- ask And what about the compound O=C(O)c1cc[c]([Hg+])cc1.[OH-] [Hydroxymercuribenzoate, p-hydroxymercuribenzoate] ?
-- reply 0

-- ask Now give it for "O=[N+]([O-])c1ccc(O)c(CBr)c1" too.
-- reply 63.3
